EC50 values for the compounds below.
system: Human immunodeficiency virus 1; experiment: Compound was evaluated for the antiviral activity against compound resistant virus isolate Y188H with amino acid changes in the HIV-1 reverse transcriptase (RT); format: functional, organism-based
Measured Property: EC50

>>> df
                                   compound  measured_property      result
0  CCCc1cc(=O)oc2c3c(c4c(c12)OC(C)(C)C=C4)O[C@H](C)[C@@H](C)C3=O (stereo in doubt; (+)-2)               EC50    > 100 µM
1  Cc1cn([C@H]2C[C@H](N=[N+]=[N-])[C@@H](CO)O2)c(=O)[nH]c1=O               EC50  < 0.003 µM

----------
Listed compounds paired with reported selectivity ratio
assay: Therapeutic index against HIV-1 strain SK1 in CEM-SS cells was expressed as IC50/EC50; assay type: cell-based, Human immunodeficiency virus 1; conditions: human immunodeficiency virus 1, CEM-SS cells infected with HIV-1 strain SK1; read-out: TI
Measured Property: selectivity ratio

>>> print(df.to_string())
                                   compound  result
0  Nc1ccn([C@H]2CC[C@@H](CO)O2)c(=O)n1 [ZALCITABINE]   > 100
1  CCCc1cc(=O)oc2c3c(c4c(c12)OC(C)(C)C=C4)O[C@H](C)[C@@H](C)C3=O (stereo in doubt; (-)-2)    > 37

----------
tested on: Human immunodeficiency virus 1; test: Compound was evaluated for the antiviral activity against compound resistant virus isolate L100I with amino acid changes in the HIV-1 reverse transcriptase (RT); format: functional, organism-based
pEC50: −log10 of the molar value.
# pEC50 annotations
Measured Property: pEC50

>>> print(df.to_string())
                                   compound  result
0  CCCc1cc(=O)oc2c3c(c4c(c12)OC(C)(C)C=C4)O[C@H](C)[C@@H](C)C3=O (stereo in doubt; (+)-2)  < 4.00
1  Cc1cn([C@H]2C[C@H](N=[N+]=[N-])[C@@H](CO)O2)c(=O)[nH]c1=O [ZIDOVUDINE]  > 8.52

----------
system: CEM-SS; assay: Compound was evaluated for the antiviral activity against HIV-1 strain RF in CEM-SS cells; type: functional, cell-based, Homo sapiens; details: Homo sapiens, CEM-SS
pEC50: −log10 of the molar value.
Measured Property: pEC50

>>> df
                            smiles_str  readout_number
0  Nc1ccn([C@H]2CC[C@@H](CO)O2)c(=O)n1            7.30

----------
assay: Therapeutic index against HIV-1 strain IIIB in CEM-SS cells was expressed as IC50/EC50; type: cell-based, Human immunodeficiency virus 1; details: human immunodeficiency virus 1, CEM-SS cells infected with HIV-1 strain IIIB; read-out: TI
Measured Property: selectivity ratio

>>> df
                                   compound  result
0  Nc1ccn([C@H]2CC[C@@H](CO)O2)c(=O)n1 [ZALCITABINE]   > 250

----------
system: Human immunodeficiency virus 1; experiment: Compound was evaluated for the antiviral activity against compound resistant virus isolate K103E with amino acid changes in the HIV-1 reverse transcriptase (RT)
Measured Property: EC50 (nM)

In [3]: df
Out[3]:
                                   molecule  measured_property  unit  readout_number
0  Cc1cn([C@H]2C[C@H](N=[N+]=[N-])[C@@H](CO)O2)c(=O)[nH]c1=O [ZIDOVUDINE]               EC50    nM               4

----------
test system: CEM-SS; experiment: Compound was evaluated for the antiviral activity against SIV delta in CEM-SS cells; format: functional, cell-based, Homo sapiens; conditions: Homo sapiens, CEM-SS
pIC50: −log10 of the molar value.
Measured Property: pIC50

                                   compound  test_system  result
0  CCCc1cc(=O)oc2c3c(c4c(c12)OC(C)(C)C=C4)O[C@H](C)[C@@H](C)C3=O (stereo in doubt; (-)-2)       CEM-SS  < 5.00
1       Nc1ccn([C@H]2CC[C@@H](CO)O2)c(=O)n1       CEM-SS  < 5.30

----------
test system: CEM-SS; experiment: Compound was evaluated for the antiviral activity against SIV delta in CEM-SS cells; type: functional, cell-based, Homo sapiens; settings: cem-ss
Measured Property: IC50 (µM)

>>> print(df.to_string())
                                   compound  test_system  measured_property  unit  readout_number
0  CCCc1cc(=O)oc2c3c(c4c(c12)OC(C)(C)C=C4)O[C@H](C)[C@@H](C)C3=O (racemic)       CEM-SS               IC50    µM             6.6

----------
tested on: Human immunodeficiency virus 1; experiment: Compound was evaluated for the antiviral activity against compound resistant virus isolate M184I with amino acid changes in the HIV-1 reverse transcriptase (RT); assay type: functional, organism-based
pEC50: −log10 of the molar value.
Measured pEC50, listed per entry for reference.
Measured Property: pEC50

>>> df
                                   molecule  readout_number
0  CCCc1cc(=O)oc2c3c(c4c(c12)OC(C)(C)C=C4)O[C@H](C)[C@@H](C)C3=O (stereo in doubt; (+)-2)            4.22
1  CCCc1cc(=O)oc2c3c(c4c(c12)OC(C)(C)C=C4)O[C@H](C)[C@@H](C)C3=O (racemic)            6.28

----------
system: CEM-SS; assay: Compound was evaluated for the antiviral activity against HIV-1 strain IIIB in CEM-SS cells; assay type: functional, cell-based, Homo sapiens; settings: cem-ss
pIC50: −log10 of the molar value.
Measured Property: pIC50

>>> df
                                   molecule  measured_property  readout_number
0  CCCc1cc(=O)oc2c3c(c4c(c12)OC(C)(C)C=C4)O[C@H](C)[C@@H](C)C3=O (racemic)              pIC50            5.25

----------
test system: Human immunodeficiency virus 1; experiment: Compound was evaluated for the antiviral activity against compound resistant virus isolate M184I with amino acid changes in the HIV-1 reverse transcriptase (RT); format: functional, organism-based; conditions: Human immunodeficiency virus 1
pEC50: −log10 of the molar value.
Measured Property: pEC50

>>> df
                                 smiles_str  readout_number
0  Cc1cn([C@H]2C[C@H](N=[N+]=[N-])[C@@H](CO)O2)c(=O)[nH]c1=O            8.00

----------
organism: Homo sapiens; test: Compound was evaluated for the anti-HIV activity against HIV strain ADA in monocyte macrophages; assay type: functional, organism-based
pEC50: −log10 of the molar value.
Measured Property: pEC50

>>> print(df.to_string())
                                   compound  measured_property  readout_number
0  CCCc1cc(=O)oc2c3c(c4c(c12)OC(C)(C)C=C4)O[C@H](C)[C@@H](C)C3=O (racemic)              pEC50            6.48
1  CCCc1cc(=O)oc2c3c(c4c(c12)OC(C)(C)C=C4)O[C@H](C)[C@@H](C)C3=O (stereo in doubt; (+)-2)              pEC50            5.75

Sourced from ChEMBL document CHEMBL1130930
